# Method description: qHTS of pediatric cancer cell lines to identify multiple opportunities for drug repurposing: Primary screen for Saos-2 cells (AID 1347097); also: nearly all actives have a fitted effect of over 40% in size
# Reported conditions: Saos-2 viability, CellTiter-Glo ATP luminescence, 48 h; series mostly up to 46 µM
Results filed as inconclusive are left out. The source made the active and inactive calls. Calls follow the shape of the dose curve; as a rule, active = well fitted cell-killing curve with a large enough effect; inconclusive = small, poorly fitted or top-dose-only effect; inactive = no such curve, though single readings can be large or run the other way.
Respond with a class label; see YES for active, NO for inactive

CCCc1nn(C)c2c(=O)[nH]c(-c3cc(S(=O)(=O)N4CCN(C)CC4)ccc3OCC)nc12	NO
CCc1cc(Nc2nccc(-c3c(-c4ccc(OC)c(C(=O)Nc5c(F)cccc5F)c4)nc4ccccn34)n2)c(OC)cc1N1CCC(N2CCN(S(C)(=O)=O)CC2)CC1	YES
Cc1c(C)c2c(c(C)c1O)CCC(C)(COc1ccc(CC3SC(=O)NC3=O)cc1)O2 (stereo not drawn)	NO
CCCC(CCC)C(=O)O	NO
CC(C)(Sc1ccc(CCN(CCCCC2CCCCC2)C(=O)NC2CCCCC2)cc1)C(=O)O	YES
CC(C)C[C@H](NC(=O)[C@@H](O)[C@H](N)Cc1ccccc1)C(=O)O	YES

[Q] Outcome logged for Cc1cnc(Nc2ccc(OCCN3CCCC3)cc2)nc1Nc1cccc(S(=O)(=O)NC(C)(C)C)c1 in this assay:
[A] NO

[Q] Same thing, different compound: COc1ccc(COc2cc3oc(=O)c4cc(C(C)O)ccc4c3cc2OC)cc1 (stereo not drawn)
[A] YES

---

# Method description: qHTS of pediatric cancer cell lines to identify multiple opportunities for drug repurposing: Primary screen for TC32 cells (AID 1347089); also: nearly all actives have a fitted effect of over 60% in size
# Reported conditions: TC32 Ewing sarcoma viability, CellTiter-Glo luminescence, 48 h; series mostly up to 45.8 µM
Records with an inconclusive call do not appear. Activity calls are given as the source filed them. The call rests on the fitted dose curve; in most records, active means well fitted cell-killing curve with a large enough effect; inconclusive means small, poorly fitted or top-dose-only effect; inactive means flat fitted curve, though single readings scatter.
Respond with a class label; see t (active), f (inactive)

See these solved cases before continuing.
CC(C)C[C@H](NC(=O)[C@@H](O)[C@H](N)Cc1ccccc1)C(=O)O	f
O=C(Nc1ccc(F)c(C(F)(F)F)c1)Nc1nnc(-c2ccncc2)s1	f
Oc1cccc(-c2nc(N3CCOCC3)c3oc4ncccc4c3n2)c1	t
CN[C@@H](C)C(=O)N[C@H]1CCCC[C@H]2CC[C@@H](C(=O)N[C@@H](c3ccccc3)c3cn(CCCCc4ccc(CCCCn5cc([C@@H](NC(=O)[C@@H]6CC[C@@H]7CCCC[C@H](NC(=O)[C@H](C)NC)C(=O)N76)c6ccccc6)nn5)cc4)nn3)N2C1=O	f
CS(=O)(=O)Oc1ccc2c(NC(N)=O)c(C(=O)c3ccc(Cl)cc3Cl)oc2c1	f
COc1ccc(-c2oc3cc(OC)ccc3c2C(=O)c2ccc(C#N)cc2)cc1	f
Oc1ccc(C2CNCCc3c2cc(O)c(O)c3Cl)cc1 (stereo not drawn)	f

Okay, now this compound:
[Q] Outcome logged for CCOC(=O)N[C@@H]1CC[C@@H]2[C@@H](C1)C[C@H]1C(=O)O[C@H](C)[C@H]1[C@@H]2C=Cc1ccc(-c2cccc(F)c2)cn1 in this assay:
[A] f

---

# Experimental target: Atrial natriuretic peptide receptor 1 (Homo sapiens)
# Method description: Natriuretic polypeptide receptor (hNpr1) antagonism - Pilot screen (AID 1347049);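 also: HEK293 cells with hNpr1 and GloSensor cGMP luciferase stimulated by 0.1 nM hNppA; agonist-evoked cGMP luminescence read 20 min after hNppA addition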
# Reported conditions: hNpr1 cells, antagonist mode cGMP read-out; series mostly up to 57.5 µM
Records with an inconclusive call do not appear. Activity calls are given as the source filed them. Calls come from the whole dose curve.
Measurement name: outcome

Study these solved cases before continuing.
CCn1cc(C(=O)O)c(=O)c2cc(F)c(N3CCNC(C)C3)c(F)c21 (stereo not drawn)	inactive
CC(C[N+](C)(C)C)OC(N)=O (stereo not drawn)	inactive
CCN(CC)CCCC(C)Nc1ccnc2cc(Cl)ccc12 (stereo not drawn)	inactive
O=C(O)COCCN1CCN(C(c2ccccc2)c2ccc(Cl)cc2)CC1 (stereo not drawn)	inactive
CCOC(=O)C1=C[C@]2(CC)CCCN3CCc4c(n1c1ccccc41)[C@@H]32	inactive

Take each entry in turn and give its outcome.
1. Cc1ccc(N(CC2=NCCN2)c2cccc(O)c2)cc1
2. C[C@]12CCC(=O)C=C1CC[C@@H]1[C@@H]2[C@@H](O)C[C@@]2(C)[C@H]1CC[C@]2(O)C(=O)CO
3. NC(=O)c1cnccn1
4. CCCC(CCC)C(=O)O
5. Cc1cccc(-c2[nH]c(C(C)(C)C)nc2-c2ccc3nccnc3c2)n1
6. NC(N)=NC(=O)c1nc(Cl)c(N)nc1N
7. Clc1cccc(Cl)c1NC1=NCCN1

[A]
1: inactive; 2: inactive; 3: inactive; 4: inactive; 5: inactive; 6: inactive; 7: inactive

Take each entry in turn and give its outcome.
1. CC(C)C[C@H](NC(=O)[C@@H](O)[C@H](N)Cc1ccccc1)C(=O)O
2. Cn1cnc([N+](=O)[O-])c1Sc1ncnc2nc[nH]c12
3. NCCc1ccc(O)c(O)c1
4. CCOC(=O)N1CCC(=C2c3ccc(Cl)cc3CCc3cccnc32)CC1

[A]
1: inactive; 2: inactive; 3: inactive; 4: inactive
